# PROTOCOL_DESCRIPTION: yeast display, Sf9 membrane polyspecificity reagent, FACS + sequencing; frameworks hold sequencing errors

- SEQUENCE_INPUT: "QVQLVESGGGLVQAGGSLRLSCAASGRIFAYYAMGWYRQAPGKERELGATITGGGDRTYYADSVKGRFTISRDNAKNTVYLQMNSLKPEDTAVYYCNARVWYYSPYYYWGQRTQVTVSS"
  polyreactivity (PSR sort gate): "low polyreactivity"
- SEQUENCE_INPUT: "QVQLVESGGGLVQAGGSLRLSCAASGRIFVTNAMGWYRQAPGKERELVAAITRGGSTNYADSVKGRFTISRDNAKNTVYLQMNSLKPEDTAVYYCAAKRRYYGPWSRIGYDYWGHGTQVTVSS"
  polyreactivity (PSR sort gate): "low polyreactivity"

###

# PROTOCOL_DESCRIPTION: yeast display, Sf9 membrane polyspecificity reagent, FACS + sequencing; frameworks hold sequencing errors

- SEQUENCE_INPUT: "QDQLVESGGGLVQAGGSLRLSCAASGSTLGYNAMGWYRQAPGKERELVAAIRGGDDDTYYADSVKGRFTISRDNAKNTVYLQMNSLKPEDTAVYYCATGDTSIPYSTPGGYDSWGQGTQVTVSS"
  polyreactivity (PSR sort gate): "low polyreactivity"
- SEQUENCE_INPUT: "QVQLVESGRGLVQAGGSLRLSCAASGSTFLDYAMGWYRQAPGKERELVAAINGSGSRTYYADSVKGRFTISRDNAKNTVYLQMNRLKPEDTAVYYCAHEYGYWGQGTQVTVSS"
  polyreactivity (PSR sort gate): "low polyreactivity"
- SEQUENCE_INPUT: "QVHLVESGGGLVQAGGSLRLSCAASGSNFYWNAMGWYRQAPGKESELFAAISSGGRTYYADSLKGRFTISRDNAKNTVYLQLNSLKREDTAFYYCNAAGWIFPSFSPMDYWGQGTQVTVSS"
  polyreactivity (PSR sort gate): "low polyreactivity"
- SEQUENCE_INPUT: "QVQLVESGGGLVQAGGSLRLSCAASGSIFTFNTMGWYRQAPGKERELVATISSGGRTYYADSVKGRFTISRDNAKNTVYLQMNSLKPEDTAVYYCNKGYYGYTYVEYNYWGQGTQVTVSS"
  polyreactivity (PSR sort gate): "low polyreactivity"
- SEQUENCE_INPUT: "QVQLVESGGCLVQAGGSLRLSCAASGSIFQPYAMGWYRQEPGKEREIVAAISQSGTSTYYADSVNGRFTISRDNAKNTVYLQMNSLKPEVTAVYYCAAQCWHLDSQWQLYNYFYWGQGTQVTVSS"
  polyreactivity (PSR sort gate): "high polyreactivity"
- SEQUENCE_INPUT: "QVQLVESGGGLVQAGGSLRLSCAASGSTFDKYTMGWYRQAPGKERELVATISRSGTSTNYADSVKGRFTISRDNAKNTVYLQLNSLKPEDTAVYYCAAVMRWRDLFSEYYYWGQGTQVTVSS"
  polyreactivity (PSR sort gate): "high polyreactivity"
- SEQUENCE_INPUT: "QVQLVESGGGLVQAGGSLRLSCAASGIIFYPYAMGWYRQAPGKERELVAAISIGGGSTYYADSVKGRFTISRDNAKNTVYLQMNSLKPEDTAVYYCAAGTPYGILGYYYWGQGTQVTVSS"
  polyreactivity (PSR sort gate): "low polyreactivity"
- SEQUENCE_INPUT: "QVQLVDSGGGLDQAGGSLRLICDASGSIFWWNAMGWYRQAPGKETELVAAINWSTGRTYYADSVKGRFTISRDNAKNTVYLQMNSLKPEDTAVYYCGADVWTPYLISLKSGYDYWGQGTQLTVSS"
  polyreactivity (PSR sort gate): "low polyreactivity"
- SEQUENCE_INPUT: "QDQLVESGGGLVQAGGSLRLRCAASGSIFGGYAMGWYRQAPGKERELVDAISSGGTTNYADSVMGRFTISRDNAKNTVYLQMNSLKQEDRAVYYCAREYGTTYQSVQVKFIQLDYWGQGTLVTVSS"
  polyreactivity (PSR sort gate): "low polyreactivity"
- SEQUENCE_INPUT: "QVQLVESGGGLVQAGGSLRLSCAASGSTFSPYAMGWYRQAPGKERELVAAISSSGGSTYYADSVKGRFTISRDNAKNTVYLQMNSLKPEDTAVYYCRSFTSAQTLDYWGQGTQVTVSS"
  polyreactivity (PSR sort gate): "high polyreactivity"
- SEQUENCE_INPUT: "QVQLVESGGGLVQAGGSLRLSCAASGSIFWRYAMGWYRQAPGKERELVAAINYSTTRTYYADSVKGRFTISLDNAKNTVYLQMNSLKPEDTAVYYCAADSRVDEGEYWGQGTQVTVSS"
  polyreactivity (PSR sort gate): "high polyreactivity"

###

# PROTOCOL_DESCRIPTION: yeast display, Sf9 membrane polyspecificity reagent, FACS + sequencing; frameworks hold sequencing errors
VALUE_TYPE: polyreactivity (PSR sort gate)

- SEQUENCE_INPUT: "QVQLVESGGGLVQAGGSLRLSCAASGSIFQPYAMGWYRQAPGKERELVATISSSGSTYYADSVKGRFTISRDNAKNTVYLQMTSLKPEDTAVYYCAAVYSDGPYNGYWLEYEYWGQGTQVTVSS"
  RESULT_VALUE: "low polyreactivity"
- SEQUENCE_INPUT: "QVQLVESGGGLVQAGGSLRLSCAASGIIFYEFTMGWYRQAPGKERELVATISWSGGSTYYADSVKGRFTISRDNAKNTVYLQMNSLQPEDTAVYYCAADFADVQSISPDSAHEYDYWGQGTQVTVSS"
  RESULT_VALUE: "low polyreactivity"
- SEQUENCE_INPUT: "QVQLVESGGGLVQAGGSLRLSCASSGSIFSTYAMGWYRQAPGKEMELVATIRRGGSTYYADSVKGPFTISRDNAKNTVYLQMNSLKPEDTELYYCAAAGGRFIRYGYWGQGTQVTVSS"
  RESULT_VALUE: "high polyreactivity"
- SEQUENCE_INPUT: "QVQLVESGGGLVQAGGSLRLSCAASGRTFDGYTMGWSRQAPGKERELVAAISRTGSTNYADSVKGRFTISRDNAKNTVYLQMNSLEPEDTAVYYCNAARRYFRYSRKTSAWYYYWGQGTQVTVSS"
  RESULT_VALUE: "high polyreactivity"
- SEQUENCE_INPUT: "QVQLVESGGGLVQAGGSLRLSCAASGRTLFTIAMGWYRQAPGKERELLAAISIGGTTYYADSVKGRFTISRDYAKNTVYLQMNSLKPEDTAVYYCNKVRRFHSEYGYWGQGTQVTVSS"
  RESULT_VALUE: "high polyreactivity"
- SEQUENCE_INPUT: "QVQLVESGGGLVQAGGSPRLSCAASGSISNYYGMGWYRQAPRKERELVAAITWGGGRTNYADSVKGRFTISRDNAKNTVYLQMNSLKPEDTAVYYCAKVSVTHRYGAGGDYWGQGTQVTVSS"
  RESULT_VALUE: "low polyreactivity"
- SEQUENCE_INPUT: "QVQLVESGRGLVQAGGSLRLTCAASGRIFYLNAMGGYRQAPGKERELVAGITNSTTGTYYADSVKGRFTIARDNAKNTVYLQMNSLKPVDTAVYYCNTDVAYEEPVETYDYWGQGTQVTVSS"
  RESULT_VALUE: "low polyreactivity"
- SEQUENCE_INPUT: "QVQLVESGGGLVKAGGSLRLSCAASGRTFLRNAMGWYRPAPGKERELVATITRGGSTYYADSVKGRFTISRDNAKNTVYLQMNSLKPEDTAVYYCAKDITGGFRRPDYGYWGQGTQVTVSS"
  RESULT_VALUE: "low polyreactivity"
- SEQUENCE_INPUT: "QVQLVESGGGLVQAGGSLRLSCAASGYTFPPNAMGWYSQAPGKERELVAAISWRGDSTYYADSVKGRFTISRDNAKNTVYLQMISLKPEDTAVYYCAAGYRRGPDIYYYWGQVTQVTVSS"
  RESULT_VALUE: "low polyreactivity"
- SEQUENCE_INPUT: "QVQLVESGGGLVQAGGSLRLSCAASGFIFAYYAMGWYRQAPGKERELVAAITIDGSTNYADSVKGRFTISRDNAKNTVYLQMNSLKPEDTAVYYCAAADHPPVWYGYWGQGTQVTVSS"
  RESULT_VALUE: "low polyreactivity"
- SEQUENCE_INPUT: "QVQLVESGGGLVQAGGSLRLSCAASGSIFSFNAMGWYRQAPGKERELVAAISYSGGSTYADSVKGRFTISRDNAKNTVYLHMNSLKPEDTAVYYCAADGLDYSSGGDGYWGQGTQVTVSS"
  RESULT_VALUE: "low polyreactivity"

Each recorded value in this set is attributed to the nanobody polyreactivity screen of Harvey et al. (2022).
